Documented DC50 across a set of compounds
# assayed.system: IKZF1 (Homo sapiens, UniProt Q13422+Q96SW2)
# Construct: expressed in transfected cells
# Sequence (Q13422 whole entry, one chain of several): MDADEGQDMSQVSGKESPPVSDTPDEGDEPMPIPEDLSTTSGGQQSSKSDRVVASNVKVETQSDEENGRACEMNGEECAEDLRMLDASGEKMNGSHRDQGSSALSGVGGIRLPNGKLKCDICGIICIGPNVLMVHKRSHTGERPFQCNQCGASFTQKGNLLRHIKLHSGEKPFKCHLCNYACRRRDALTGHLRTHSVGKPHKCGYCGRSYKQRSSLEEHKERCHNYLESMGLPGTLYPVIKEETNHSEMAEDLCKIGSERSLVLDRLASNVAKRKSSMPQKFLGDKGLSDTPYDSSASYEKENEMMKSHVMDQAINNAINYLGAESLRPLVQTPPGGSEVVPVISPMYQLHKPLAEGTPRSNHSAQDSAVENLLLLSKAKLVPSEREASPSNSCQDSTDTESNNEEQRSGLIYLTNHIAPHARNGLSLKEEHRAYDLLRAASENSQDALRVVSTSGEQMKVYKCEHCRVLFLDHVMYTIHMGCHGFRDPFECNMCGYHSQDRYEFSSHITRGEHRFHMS
# run.description: HEK293 HiBiT in vitro degradation of IKZF1
# Format: cell-based
# settings: HEK293 HiBiT, 18-24 hr incubation, normalized to DMSO control; read-out: IKZF1 EC50

Measured on IKZF1 (Homo sapiens, UniProt Q13422+Q96SW2), CCOC1CC(N[C@H]2CCCC[C@@H]2Cc2ccc3c(c2)CN(C2CCC(=O)NC2=O)C3=O)C1 (stereo partly drawn) has a documented DC50 of 888 nM

Measured on IKZF1 (Homo sapiens, UniProt Q13422+Q96SW2), N#Cc1ccc(CN[C@H]2CCCC[C@@H]2Cc2ccc3c(c2)CN(C2CCC(=O)NC2=O)C3=O)c(F)c1 (stereo partly drawn) has a documented DC50 of > 1000 nM

Measured on IKZF1 (Homo sapiens, UniProt Q13422+Q96SW2), O=C1CCC(N2Cc3cc(C[C@H]4CCCCC[C@@H]4NC4CCC(F)(F)CC4)ccc3C2=O)C(=O)N1 (stereo partly drawn) has a documented DC50 of > 1000 nM

---

Documented DC50 across a set of molecules
# assayed.system: IKZF1 (Homo sapiens, UniProt Q13422+Q96SW2)
# Construct: expressed in transfected cells
# run.description: HEK293 HiBiT in vitro degradation of IKZF1
# Type: cell-based
# settings: HEK293 HiBiT, 18-24 hr incubation, normalized to DMSO control; read-out: IKZF1 EC50

Previously resolved entries follow.
CC(N[C@H]1CCCC[C@@H]1Cc1ccc2c(c1)CN(C1CCC(=O)NC1=O)C2=O)C1CCCO1 (single isomer, unassigned) [Example 253] = > 1000 nM
[2H]C1(N[C@H]2CCCC[C@@H]2Cc2ccc3c(c2F)CN(C2CCC(=O)NC2=O)C3=O)CCCC1 (stereo partly drawn) [Example 212] = 45 nM
O=C1CC[C@@H](N2Cc3c(ccc(C[C@H]4OCCC[C@@H]4N[C@H]4CC[C@H](F)CC4)c3F)C2=O)C(=O)N1 (single isomer, unassigned) [Example 373] = > 1000 nM
CC(N[C@H]1CCCC[C@@H]1Cc1ccc2c(c1)CN(C1CCC(=O)NC1=O)C2=O)C(F)F (stereo partly drawn) [Example 130] = > 1000 nM
O=C1CCC(N2Cc3c(ccc(C[C@H]4OCCC[C@@H]4NC4CCCC4)c3F)C2=O)C(=O)N1 (stereo partly drawn) [Example 148] = > 1000 nM

In the following, a different molecule is considered.
Measured on IKZF1 (Homo sapiens, UniProt Q13422+Q96SW2), O=C1CCC(N2Cc3cc(C[C@H]4CCCC[C@@H]4NC4CCCCC4(F)F)ccc3C2=O)C(=O)N1 (stereo partly drawn) [Example 183] has a documented DC50 of > 1000 nM

---

# assayed.system: IKZF2 (Homo sapiens, UniProt Q96SW2+Q9UKS7)
# Sequence (Q9UKS7 1-500 isoform Q9UKS7-2): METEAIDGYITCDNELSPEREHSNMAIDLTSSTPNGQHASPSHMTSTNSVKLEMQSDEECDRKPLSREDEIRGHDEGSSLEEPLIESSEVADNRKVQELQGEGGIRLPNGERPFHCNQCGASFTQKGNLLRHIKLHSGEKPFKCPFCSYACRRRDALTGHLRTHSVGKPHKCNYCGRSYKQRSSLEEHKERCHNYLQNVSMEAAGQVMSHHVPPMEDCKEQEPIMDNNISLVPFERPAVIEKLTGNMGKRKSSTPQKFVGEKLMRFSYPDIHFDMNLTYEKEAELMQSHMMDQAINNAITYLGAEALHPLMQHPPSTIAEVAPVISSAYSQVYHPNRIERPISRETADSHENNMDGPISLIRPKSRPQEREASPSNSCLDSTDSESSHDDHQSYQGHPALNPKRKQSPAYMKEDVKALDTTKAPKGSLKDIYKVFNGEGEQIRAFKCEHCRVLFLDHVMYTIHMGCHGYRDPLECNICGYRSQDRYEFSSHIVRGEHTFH
# Sequence (Q96SW2 whole entry): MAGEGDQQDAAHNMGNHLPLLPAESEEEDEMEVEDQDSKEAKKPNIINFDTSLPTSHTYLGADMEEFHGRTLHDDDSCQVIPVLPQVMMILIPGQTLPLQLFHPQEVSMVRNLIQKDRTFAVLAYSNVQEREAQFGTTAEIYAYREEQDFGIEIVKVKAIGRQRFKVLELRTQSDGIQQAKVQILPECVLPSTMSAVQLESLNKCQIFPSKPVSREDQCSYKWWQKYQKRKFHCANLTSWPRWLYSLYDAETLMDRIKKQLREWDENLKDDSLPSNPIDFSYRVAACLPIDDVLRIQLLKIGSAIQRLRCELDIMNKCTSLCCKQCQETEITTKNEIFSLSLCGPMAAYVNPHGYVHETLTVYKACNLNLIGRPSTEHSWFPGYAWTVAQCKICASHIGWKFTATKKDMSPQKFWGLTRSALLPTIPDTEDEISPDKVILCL
# Sequence (Q16531 whole entry partner): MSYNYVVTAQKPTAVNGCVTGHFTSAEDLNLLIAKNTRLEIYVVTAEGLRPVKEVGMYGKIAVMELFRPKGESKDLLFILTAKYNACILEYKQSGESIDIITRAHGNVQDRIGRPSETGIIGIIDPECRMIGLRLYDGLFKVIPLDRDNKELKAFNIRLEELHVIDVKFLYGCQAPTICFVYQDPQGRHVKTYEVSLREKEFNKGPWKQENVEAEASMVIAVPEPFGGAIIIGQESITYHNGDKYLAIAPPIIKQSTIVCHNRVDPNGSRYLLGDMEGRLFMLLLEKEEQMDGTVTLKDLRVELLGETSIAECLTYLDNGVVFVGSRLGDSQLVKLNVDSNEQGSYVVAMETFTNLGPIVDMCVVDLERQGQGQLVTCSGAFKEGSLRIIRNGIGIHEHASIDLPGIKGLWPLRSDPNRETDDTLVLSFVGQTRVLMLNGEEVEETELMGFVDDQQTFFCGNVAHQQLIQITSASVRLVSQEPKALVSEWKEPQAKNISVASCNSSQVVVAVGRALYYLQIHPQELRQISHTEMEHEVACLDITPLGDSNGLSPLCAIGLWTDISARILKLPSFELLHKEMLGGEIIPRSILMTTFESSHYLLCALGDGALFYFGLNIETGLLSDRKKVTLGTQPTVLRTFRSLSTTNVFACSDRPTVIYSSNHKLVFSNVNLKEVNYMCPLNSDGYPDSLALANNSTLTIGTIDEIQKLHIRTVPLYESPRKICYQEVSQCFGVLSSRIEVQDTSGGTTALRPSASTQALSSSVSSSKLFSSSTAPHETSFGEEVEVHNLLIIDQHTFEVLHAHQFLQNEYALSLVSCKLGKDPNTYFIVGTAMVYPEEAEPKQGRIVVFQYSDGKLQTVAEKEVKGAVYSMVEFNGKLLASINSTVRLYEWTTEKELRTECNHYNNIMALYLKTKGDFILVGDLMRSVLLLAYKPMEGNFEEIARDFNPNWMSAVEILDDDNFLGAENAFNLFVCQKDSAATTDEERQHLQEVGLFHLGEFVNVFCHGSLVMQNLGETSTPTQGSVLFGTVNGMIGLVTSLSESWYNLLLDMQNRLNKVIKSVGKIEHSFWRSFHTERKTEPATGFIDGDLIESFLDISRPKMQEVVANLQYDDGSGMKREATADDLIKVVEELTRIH
# run.description: HEK293 HiBiT in vitro degradation of IKZF2
# Format: cell-based
# Parameters: expressed in transfected cells
# settings: HEK293 HiBiT, 18-24 hr incubation, normalized to DMSO control; read-out: IKZF2 EC50
Documented DC50 across a set of molecules
Give just the number in nM; leave the unit off.

Previously resolved entries follow.
CC1(C)CC(N[C@H]2CCCC[C@@H]2Cc2ccc3c(c2)CN(C2CCC(=O)NC2=O)C3=O)CC(C)(C)C1 (stereo partly shown) = 7
COC1(C)CCC(N[C@H]2CCCO[C@@H]2Cc2ccc3c(c2F)CN(C2CCC(=O)NC2=O)C3=O)CC1 (single isomer, unassigned) [Example 316] = 7
CC(C)N[C@H]1CCC(F)(F)C[C@@H]1Cc1ccc2c(c1)CN(C1CCC(=O)NC1=O)C2=O (stereo partly shown) = 28
CC(C)N[C@H]1CC=CC[C@@H]1Cc1ccc2c(c1)CN(C1CCC(=O)NC1=O)C2=O (stereo partly shown) = 31
O=C1CCC(N2Cc3cc(C[C@H]4CCCC[C@@H]4NC4CCCCC45CC5)ccc3C2=O)C(=O)N1 (stereo partly shown) [Example 229] = 8
O=C1CCC(N2Cc3c(ccc(C[C@H]4OCCC[C@@H]4NC4CCC(OC(F)F)CC4)c3F)C2=O)C(=O)N1 (single isomer, unassigned) [Example 327] = 3

So for CS(=O)(=O)c1ccc(CN[C@H]2CCCC[C@@H]2Cc2ccc3c(c2)CN(C2CCC(=O)NC2=O)C3=O)cc1 (stereo partly shown) , the logged DC50 turned out to be 106
